- Tested on: A549
- assay-explanation: Cytotoxicity against human A549 cells assessed as inhibition of cell growth by CCK-8 assay
- Format: functional, cell-based
The label is Yes for IC50 below 3 µM and No for IC50 equal to or exceeding 3 µM.

Consider the worked cases shown below.
[
  {
    "molecule": "C/C(=C\\[C@H]1C[C@@H]([C@@H]2CC[C@]34C[C@]23C=C[C@@H]2[C@@]3(C)CC=C(/C=C/c5ccccc5)C(C)(C)[C@@H]3C[C@@H](O)[C@]24C)C(=O)O1)CO",
    "group-label": "Yes"
  },
  {
    "molecule": "C/C(=C\\[C@@H]1OC(=O)[C@H]([C@@H]2CC[C@]34C[C@]23C=C[C@@H]2[C@@]3(C)CC=C(/C=C/c5ccccc5)C(C)(C)[C@@H]3C[C@H](O)[C@]24C)[C@H]1O)CO",
    "group-label": "Yes"
  },
  {
    "molecule": "C/C(=C\\[C@H]1C[C@@](O)([C@@H]2CC[C@]34C[C@]23C=C[C@@H]2[C@@]3(C)CC(=O)/C(=C\\C(=O)c5ccccc5)C(C)(C)[C@@H]3C[C@@H](O)[C@]24C)C(=O)O1)CO",
    "group-label": "No"
  },
  {
    "molecule": "C/C(=C\\[C@H]1C[C@@](O)([C@@H]2CC[C@]34C[C@]23C=C[C@@H]2[C@@]3(C)CC=C5C[C@@H](c6ccccc6)OC[C@]5(C)[C@@H]3C[C@@H](O)[C@]24C)C(=O)O1)CO",
    "group-label": "Yes"
  }
]

Lookup: Is IC50 strictly under 3 µM for the entry C/C(=C\[C@@H]1OC(=O)[C@H]([C@@H]2CC[C@]34C[C@]23C=C[C@@H]2[C@@]3(C)CC=C(/C=C\c5ccccc5)C(C)(C)[C@@H]3C[C@@H](O)[C@]24C)[C@H]1O)CO ?
Found: No

Lookup: # check: IC50 < 3 µM for C/C(=C\[C@@H]1OC(=O)[C@H]([C@@H]2CC[C@]34C[C@]23C=C[C@@H]2[C@@]3(C)CC(=O)/C(=C\C(=O)c5ccccc5)C(C)(C)[C@@H]3C[C@H](O)[C@]24C)[C@H]1O)CO
Found: No

Lookup: Threshold test, IC50 < 3 µM: C/C(=C\[C@H]1C[C@@](O)([C@@H]2CC[C@]34C[C@]23C=C[C@@H]2[C@@]3(C)CC=C(/C=C\c5ccccc5)C(C)(C)[C@@H]3CC(=O)[C@]24C)C(=O)O1)CO
Found: No

----------
Measured IC50 by item
- System: A549
- assay-explanation: Cytotoxicity against human A549 cells assessed as inhibition of cell growth by CCK-8 assay
- Assay type: functional, cell-based
Report only the number, with the unit nM understood.

The cases that follow already have their IC50 on record.
[
  {
    "molecule": "C/C(=C\\[C@@H]1C[C@@](O)([C@@H]2CC[C@]34C[C@]23C=C[C@@H]2[C@@]3(C)CC=C(/C=C/c5ccccc5)C(C)(C)[C@@H]3CC(=O)[C@]24C)C(=O)O1)CO",
    "data-value": 2200
  },
  {
    "molecule": "COc1ccc(/C=C/C2=CC[C@]3(C)[C@H]4C=C[C@]56C[C@]5(CC[C@H]6[C@H]5C(=O)O[C@@H](/C=C(\\C)CO)[C@@H]5O)[C@]4(C)[C@H](O)C[C@H]3C2(C)C)cc1",
    "data-value": 1200
  }
]

Turning to the following molecule.
Record CC(=O)O[C@@]1(C)CO[C@@]2(C1)OC(=O)[C@H]([C@@H]1CC[C@]34C[C@]13C=C[C@@H]1[C@@]3(C)CC=C5C[C@@H](c6ccccc6)OC[C@]5(C)[C@@H]3C[C@H](O)[C@]14C)[C@H]2O . Reported IC50: 3300
